assay_method_text: folding stability dG unfold (combined trypsin and chymotrypsin); higher = more stable
measured_endpoint: folding stability dG unfold (kcal/mol)
Use kcal/mol as the unit, but write only the number.

Known results for sequences:
1) SAGGSASVSDVTTTTVTVTVEVTEDPATGLQRLTATHPDLSFERLVPAGTIPADTTVTLDVTVTTGSAGGSA [r15_190_JUSTAS]    0.322
2) SMKDATSTSIGSRTYTYPNTDPSVSPEELKEKVIEEIKKEPELKAVEITVEVDPSTGTVTITINLTKLVKSA [r9_1001_JUSTAS]    1.5
3) SAGGSASAEEAARAFVAAHPDRALVEVEIERSFIPEKGVEVVTLTVTLAFPDGSRRVVPVTVTRPRSAGGSA [r15_266_JUSTAS]    1.13
4) GSSMTVEVSESVVPGTGKKILHVTVTFGGSDPEVARAQALAYVEKETGLPVVSVTVTRAPDSWTVNMTVVGS [r1_337_JUSTAS]    2.81
5) SAGGSAGGSAKKTLYKVKITKKNKNGEKIEIVVPKSEDEIKEEAKKKFGIDKIEIEPVELKSAGGSAGGSAG [r3_220_TrROS_Hall]    0.182
6) SAGGSAGGSAGGSELIFKTEDGYYVKVKLKNGKTIVFPAENLEELKKLNVEKVEVVPAKSAGGSAGGSAGGS [r4_348_TrROS_Hall]    0.684
7) SAGGSAGGSAGGMIVETLGDSPETVTLVKLPNKPIIRTYDPVTGTWTIYDPDTNKIYEISAGGSAGGSAGGS [r10_434_JUSTAS]    1.26
8) SAGGSFEFKAEVFYDKEKDIYYVKIPYILKNTGKIIPIVKKVKAGDPIPVEKLAEKIAKELEELGISAGGSA [r2_221_TrMRF]    1.36

Now for the sequence whose folding stability dG unfold we want.
Let me know recorded folding stability dG unfold for SAGMTVSTETTTFTDPAGFETTVTTLTTTHPDGSVTSTPTTTVTAVPVPPPPAPVPVDPANPDNPALLSAGG [r19_12_JUSTAS] , thanks.
0.163

---

assay_method_text: folding stability dG unfold (combined trypsin and chymotrypsin); higher = more stable
measured_endpoint: folding stability dG unfold

Here is how some sequences turned out for folding stability dG unfold.
1) SKLVEKIAEEFGISSAMPHPDGQFMIMFPDGYMIKINIEIDEVKPKPDGKPELDLDIEIEIIPMPPPDDMSA [r9_648_TrROS]    2.39 kcal/mol
2) SAGGSAGGSAKTVEIPLKDLKPDKDGKYNYDEIQDQIKEKFPPNGIDKVDIDTPRQIWDQFRSAGGSAGGSA [r18_72_TrROS]    -0.329 kcal/mol
3) SAGGSAPSVFPFKAKFKDYDLEIKSITVYENGEVEINAIAYNPDGKKKVELNITLPYSEILDLLKSSAGGSA [r15_56_TrMRF]    2.55 kcal/mol

Identify measured folding stability dG unfold corresponding to SAGGSGMMLEEGVGVDPTTGELHRFTYLREPERPPVEVTVTTTTVVYTTPDGTTVTVTTTTTLEGGSAGGSA [r2_326_JUSTAS]
0.789 kcal/mol

For the sequence SAEKPPVVTLEIEIEIVVKDENGKTHKRKFRLTVTFYPDGTVEISIYDENGELIETITLPPGATLEELLSAG [r14_559_TrROS_Hall] , give its reported folding stability dG unfold.
3.61 kcal/mol

Answer with the recorded folding stability dG unfold for the sequence listed here: SADLAAELEEGGFVVTITETVVSVTPQTLEKDSFVVEKDVVTTITVTPPPVAPPPPDPANLRDAAGAPVSAG [r14_569_JUSTAS]
0.798 kcal/mol

State its folding stability dG unfold: SAGGSAGGSAGGGKKVKVIIAADKPEEAEKAIEKLEKETDLPLEDVIVIPREEAEKLGLASAGGSAGGSAGG [r7_84_TrMRF]
-0.553 kcal/mol

Please list folding stability dG unfold recorded for the sequence SAMDAKELAEEIADEFAPKFPNIKPKKVTVEPTGDHYEGNIEWEMPNGRPMRVEVTVEKDGNIEDIEFHSAG [r14_719_TrROS]
< -1 kcal/mol

Please give measured folding stability dG unfold of the following entry: SMTLTLEDGKLTLTVTETRTTVERDAADPGKWTTRTETRTVTLTLPLEDLEALKKLLEALPPGARVELVPSA [r9_476_TrROS_Hall]
3.91 kcal/mol

Read the entry SAGGSAGGSAAKPIPFTITSVSVPTAPDGKKYAVVEISFPGSGAKAWAVYDIDDPYIKEAGSAGGSAGGSAG [r3_57_TrMRF] and write its reported folding stability dG unfold.
1.37 kcal/mol

Provide folding stability dG unfold value for the following sequence: SAELLEELLKKAREEAEKEGKKVEIHLVLVVEKDENGKVTFTEEEKELIKKLKEAFPDVEIKIEVVELPSAG [r14_636_TrROS_Hall]
3.28 kcal/mol

Provide folding stability dG unfold value for the following sequence: SAGGSAGGSSKTVPLKSEEEVKAVLEKLPPDAEYTVTDSEGKSKKVSPDEISFTPDPLTITVSSAGGSAGGS [r12_907_JUSTAS]
-0.131 kcal/mol

Identify measured folding stability dG unfold associated with SAGGSAGGSAGGKRRKITIPFKMPDGRWHPIRANMSEEQLEDIVEHHPFFKPAIKKALKKSAGGSAGGSAGG [r7_637_TrROS]
< -1 kcal/mol

Note down folding stability dG unfold recorded for SEITIYNKGKPPPEELLEALKKAPGFPPEDLRKNTKVEPNKDGPQITIPPEQAEQMSKRNPRIMEAIRELSA [r9_160_TrROS]
1.44 kcal/mol

---

assay_method_text: folding stability dG unfold (combined trypsin and chymotrypsin); higher = more stable
Property: folding stability dG unfold; scope: individual sequences
The response must be a number in kcal/mol with no trailing unit.

1) SAGGSAGGSAGGGSMVTVPVTTESTTTVPPGAPAVEAAPVDPATATVSTTTSSTSLVASSAGGSAGGSAGGS [r10_82_JUSTAS]    0.862
2) SAGGSAGGSKKDPEDNPEQAKPPIPPIRVEIYPPDGQPETFEFHSLEEITEWIQERGYTVKIESAGGSAGGS [r12_244_TrROS]    0.974
3) SMDLRLEVVSVEIEPEGRTLRIRVRVRLTALDPDDPDLPVPVLEVEVEIPIPLPEPLPLPVPNDPRALAASA [r9_357_TrMRF]    2.25
4) SAGGMIAEIKPIPPNVPDGATATITFPDGTPAEAELRTEPLEDGPRRVVLKLKGKEGEIELEFVLPLSAGGS [r8_360_TrMRF]    0.0112
5) SAGGSAGGSAGMKTLKIASISTSTSPTNTTLTTVTITSEGVTTTVTFPPGTTLEEVLEQLSAGGSAGGSAGG [r11_1056_JUSTAS]    0.685

Quote folding stability dG unfold reported for SAGGSAKKYIVLAKIKEVKVTKTYKTKNGKKVKVTVKVEIKVEPVKVFKIKKDKNGNWKIEPGEVLSAGGSA [r15_162_TrROS_Hall] please.
3.14

Please look at this sequence and report its folding stability dG unfold: SAGGSAGGSAGTITILFKDPEDAIDRIKEFAQKEGYKVKIDEIEYTPNGYVWIDIDIEPPSAGGSAGGSAGG [r11_304_TrROS]
1.35

---

Measured folding stability dG unfold, listed per entry.
assay_method_text: folding stability dG unfold from chymotrypsin proteolysis; higher = more stable
Numeric answer only, unit kcal/mol assumed.

1) SAGGSAGGSMRTLKARITLRGPDGVEYRFEFEIPAGSAEDVVAFLKNLPVPPGWEVELEVLDESAGGSAGGS [r20_162_TrMRF]    5.54
2) SAGGSAGGSAGGSKKEKYYLVTRIEVEVNGKKYPLGSKLPKNLPPGAKIKIETRIVKLDSAGGSAGGSAGGS [r4_436_TrROS_Hall]    1.58
3) SAGMMKVKIELTIVVETKEEAEKLAEELKKALEELGIKEVKVTVEYDKETKKVTVTVEIEIELEPELLSAGG [r19_92_TrROS_Hall]    2.17
4) SKIEIEVFPEEGFIRIRLEAENLTEEELKDAIIEFIKSLGFPAEVEILRIEPSGNTIRIEALVKVEPGYLSA [r9_347_TrMRF]    2.67
5) SAGSPLYEVKSEEVLPGPGGEPMRVTVVELPGGEILTFVESPDGLLEIRYIPAETGKFEKTEKVPRDLLSAG [r5_750_JUSTAS]    0.802
6) SAGGSAGGSAGKKTVVIKDAEIVEVEEENGYLKVRIKVTNPDGSEEEFTFTFKPGDVIELSAGGSAGGSAGG [r11_211_TrROS_Hall]    3.11

--- query ---
Read the entry SAGGSAGGSAGGMNPVSKVTKHSGPNGQVTETTTYFDPASGKTTVTYTDLVTGTTSTISTSAGGSAGGSAGG [r11_1063_JUSTAS] and write its reported folding stability dG unfold.
-1.02
